Tested on: HCT116 cells
METHOD_DESCRIPTION: Cell growth inhibition, HCT116
Assay type: cell-based, Human
TEST_CONDITIONS: Homo sapiens, HCT-116

MOLECULE	READOUT_UNIT	IC50
Nc1ncn([C@H]2C[C@H](O)[C@@H](CO)O2)c(=O)n1 [DAC, 2′-deoxy-5-azacytidine, reference compound]	nM	850

* * *

METHOD_DESCRIPTION: Stability in phosphate-buffered saline
Type: physicochemical
TEST_CONDITIONS: PBS solution at 37°C
// reported t1/2 in PBS per item
PROPERTY: t1/2 in PBS (h)

COMPOUND	READOUT_UNIT	REPORTED_MEASUREMENT
CC[Si](CC)(CC)OC[C@H]1O[C@@H](n2cnc(N)nc2=O)C[C@@H]1O	h	16
C[Si](C)(OC[C@H]1O[C@@H](n2cnc(N)nc2=O)C[C@@H]1O)C1CCCCC1	h	14
CCC[Si](CC)(CC)OC[C@H]1O[C@@H](n2cnc(N)nc2=O)C[C@@H]1O	h	19
C[Si](C)(OCC1OC(n2cnc(N)nc2=O)CC1O)C1CCCC1 (stereo not shown)	h	15

* * *

The entries below are paired with their reported half-life (time to release DAC).
METHOD_DESCRIPTION: Stability in phosphate-buffered saline
Type: physicochemical
Description: Five microliters of DAC derivatives (1.0 mg/100 μL of DMSO) was added to 200 μL of a stirred PBS solution at 37 °C. The mixture was stirred continuously for 1 day. The remaining of the starting derivatives was assayed using the HPLC analytical conditions as described above.
PROPERTY: half-life (time to release DAC)

1. CCC[Si](C)(C)OC[C@H]1O[C@@H](n2cnc(N)nc2=O)C[C@@H]1O 1 h
2. CC[Si](CC)(CC)OC[C@H]1O[C@@H](n2cnc(N)nc2=O)C[C@@H]1O ≥ 14 h
3. CCC[Si](CC)(CC)OC[C@H]1O[C@@H](n2cnc(N)nc2=O)C[C@@H]1O ≥ 14 h
4. C[Si](C)(OC[C@H]1O[C@@H](n2cnc(N)nc2=O)C[C@@H]1O)C1CCCCC1 ≥ 14 h

* * *

METHOD_DESCRIPTION: Stability in phosphate-buffered saline
Assay type: physicochemical
TEST_CONDITIONS: PBS solution at 37°C
Examples of molecules with documented t1/2 in PBS follow.
PROPERTY: t1/2 in PBS (h)

1) C[Si](C)(Cc1ccccc1)OC[C@H]1O[C@@H](n2cnc(N)nc2=O)C[C@@H]1O 2.5
2) CCC[Si](CCC)(CCC)OC[C@H]1O[C@@H](n2cnc(N)nc2=O)C[C@@H]1O 22
3) CC(C)[Si](C)(C)OC[C@H]1O[C@@H](n2cnc(N)nc2=O)C[C@@H]1O 12
4) CCCC[Si](C)(C)OC[C@H]1O[C@@H](n2cnc(N)nc2=O)C[C@@H]1O 1.3
5) CC[Si](C)(CC)OC[C@H]1O[C@@H](n2cnc(N)nc2=O)C[C@@H]1O 4

* * *

A collection of compounds and their measured Log PO/PBS
METHOD_DESCRIPTION: Partition coefficient (log P), shake-flask method, n-octanol/PBS
Type: physicochemical
PROPERTY: Log PO/PBS

COMPOUND	REPORTED_MEASUREMENT
CCC[Si](CC)(CC)OC[C@H]1O[C@@H](n2cnc(N)nc2=O)C[C@@H]1O	2.54
CCC[Si](CCC)(CCC)OC[C@H]1O[C@@H](n2cnc(N)nc2=O)C[C@@H]1O	5.20
CC[Si](CC)(OCC1OC(n2cnc(N)nc2=O)CC1O)C1CCCC1 (stereo not shown)	3.10
C[Si](C)(Cc1ccccc1)OC[C@H]1O[C@@H](n2cnc(N)nc2=O)C[C@@H]1O	1.73
CCC[Si](C)(C)OC[C@H]1O[C@@H](n2cnc(N)nc2=O)C[C@@H]1O	1.64
CC[Si](CC)(CC)OC[C@H]1O[C@@H](n2cnc(N)nc2=O)C[C@@H]1O	2.14
CC[Si](CC)(OC[C@H]1O[C@@H](n2cnc(N)nc2=O)C[C@@H]1O)C(C)C	2.56
C[Si](C)(OC[C@H]1O[C@@H](n2cnc(N)nc2=O)C[C@@H]1O)C1CCCCC1	2.52
CC(C)(C)[Si](C)(C)OC[C@H]1O[C@@H](n2cnc(N)nc2=O)C[C@@H]1O	1.91
CC[Si](C)(CC)OC[C@H]1O[C@@H](n2cnc(N)nc2=O)C[C@@H]1O	1.49
